# inhibition at 25 ppm listing for each entry below
tested on: Rhizoctonia solani; assay: Growth inhibition plate assay, R. solani; assay type: cell-based; details: ND = Not Detectable, read-out: Plate assay inhibition, P1 R. solani

Give inhibition at 25 ppm; test system Rhizoctonia solani; compound c1ccc(CCN2CCC3(CC2)OCC(COCc2ccccc2)O3)cc1 (centres unmarked) 40 to 50%

New cases:
State, for Rhizoctonia solani, measured inhibition at 25 ppm of the compound listed here: Clc1cc(Br)ccc1OCC1COC2(CCN(CCc3ccccc3)CC2)O1 (centres unmarked) 90 to 100%

Enter measured inhibition at 25 ppm, system Rhizoctonia solani, for the compound shown: Clc1ncc(COCC2COC3(CCN(CCc4ccccc4)CC3)O2)s1 (centres unmarked) 20 to 30%

Report inhibition at 25 ppm from Rhizoctonia solani testing of c1ccc(CCN2CCC3(CC2)OCC(CSc2ccccc2)O3)cc1 (centres unmarked) 90 to 100%

# lookup: Rhizoctonia solani inhibition at 25 ppm, key = c1ccc(CCN2CCC3(CC2)OCC(CN2CCOCC2)O3)cc1 (centres unmarked) 70 to 80%

====

Documented inhibition at 25 ppm across a set of molecules
system: Pyrricularia oryzae; assay: microbe, parasite or virus in culture; assay type: cell-based; details: Pyricularia oryzae, read-out: Plate assay inhibition, P5 P. oryzae, 25 ppm; ND = Not Detectable

Reference set, count: 3
In one line, give reported inhibition at 25 ppm of the entry c1ccc(CCN2CCC3(CC2)OCC(CSc2ccccc2)O3)cc1 (stereo not shown) . 60 to 90%

Consider the molecule Clc1cc(Br)ccc1OCC1COC2(CCN(CCc3ccccc3)CC2)O1 (stereo not shown) . State its measured inhibition at 25 ppm. 90 to 100%

Respond only with inhibition at 25 ppm recorded for c1ccc(CCN2CCC3(CC2)OCC(CN2CCOCC2)O3)cc1 (stereo not shown) 40 to 50%

Next up:
Supply recorded inhibition at 25 ppm for Clc1ncc(COCC2COC3(CCN(CCc4ccccc4)CC3)O2)s1 (stereo not shown) here. 30 to 40%
